The origin of these recorded values is paper PMC3961306.

Biological target: panel of more than 300 wild-type and mutant kinases (313 kinase panel) (Homo sapiens, UniProt O60674)
Sequence (O60674 whole entry, change not shown): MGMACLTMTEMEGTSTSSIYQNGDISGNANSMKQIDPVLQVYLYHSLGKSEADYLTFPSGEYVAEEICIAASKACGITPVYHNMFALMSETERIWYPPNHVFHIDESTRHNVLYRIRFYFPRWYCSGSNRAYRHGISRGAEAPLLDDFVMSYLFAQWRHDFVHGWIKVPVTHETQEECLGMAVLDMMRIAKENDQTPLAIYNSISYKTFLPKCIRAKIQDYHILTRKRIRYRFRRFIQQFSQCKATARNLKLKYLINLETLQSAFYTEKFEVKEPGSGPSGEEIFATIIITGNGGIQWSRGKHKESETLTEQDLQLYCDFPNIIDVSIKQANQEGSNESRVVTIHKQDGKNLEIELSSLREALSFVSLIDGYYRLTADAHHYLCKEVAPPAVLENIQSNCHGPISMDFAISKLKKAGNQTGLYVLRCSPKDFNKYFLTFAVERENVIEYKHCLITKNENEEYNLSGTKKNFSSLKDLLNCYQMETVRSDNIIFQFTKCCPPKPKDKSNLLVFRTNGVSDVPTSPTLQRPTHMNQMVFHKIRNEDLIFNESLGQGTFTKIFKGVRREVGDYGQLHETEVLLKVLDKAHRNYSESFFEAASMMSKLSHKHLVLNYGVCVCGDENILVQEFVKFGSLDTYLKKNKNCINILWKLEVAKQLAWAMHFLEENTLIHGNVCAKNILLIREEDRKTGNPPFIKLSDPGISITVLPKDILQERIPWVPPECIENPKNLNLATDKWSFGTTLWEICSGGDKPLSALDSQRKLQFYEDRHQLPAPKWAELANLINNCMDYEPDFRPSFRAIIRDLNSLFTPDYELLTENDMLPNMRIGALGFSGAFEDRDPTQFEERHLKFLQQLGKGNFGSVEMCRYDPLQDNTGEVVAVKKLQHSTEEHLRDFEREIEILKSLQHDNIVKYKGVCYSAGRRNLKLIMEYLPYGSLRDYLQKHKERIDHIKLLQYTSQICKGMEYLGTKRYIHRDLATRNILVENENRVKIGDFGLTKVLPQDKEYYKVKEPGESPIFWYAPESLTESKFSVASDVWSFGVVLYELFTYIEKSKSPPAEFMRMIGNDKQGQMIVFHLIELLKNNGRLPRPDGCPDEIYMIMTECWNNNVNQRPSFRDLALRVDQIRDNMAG
Assay: Kinase profiling in a biochemical assay panel (mobility shift assays and ELISA), %-inhibition at 1 μM; selectivity entropy
Settings: kinase JAK2; compound at 1 μM
Assay metric: %-inhibition of JAK2 (%)

Cc1cn(-c2cc(NC(=O)c3ccc(C)c(Nc4nccc(-c5cccnc5)n4)c3)cc(C(F)(F)F)c2)cn1 = 19
CNC(=O)c1cc(Oc2ccc(NC(=O)Nc3ccc(Cl)c(C(F)(F)F)c3)c(F)c2)ccn1 = 33
Cc1ccc(Nc2nccc(N(C)c3ccc4c(C)n(C)nc4c3)n2)cc1S(N)(=O)=O = 50
CCCS(=O)(=O)Nc1ccc(F)c(C(=O)c2c[nH]c3ncc(-c4ccc(Cl)cc4)cc23)c1F = 18
COc1cc2nccc(Oc3ccc(NC(=O)C4(C(=O)Nc5ccc(F)cc5)CC4)cc3)c2cc1OC [cabozantinib] = 29
COc1cc(Nc2c(C#N)cnc3cc(OCCCN4CCN(C)CC4)c(OC)cc23)c(Cl)cc1Cl = 64

###

Target: panel of more than 300 wild-type and mutant kinases (313 kinase panel) (Homo sapiens, UniProt P21802)
Assay: Kinase profiling in a biochemical assay panel (mobility shift assays and ELISA), %-inhibition at 1 μM; selectivity entropy
Conditions: kinase FGFR2; compound at 1 μM
Listed next: entries and their corresponding %-inhibition of FGFR2.
Assay metric: %-inhibition of FGFR2 (%)

CCCS(=O)(=O)Nc1ccc(F)c(C(=O)c2c[nH]c3ncc(-c4ccc(Cl)cc4)cc23)c1F [vemurafenib] = 10
Cc1ccc(Nc2nccc(N(C)c3ccc4c(C)n(C)nc4c3)n2)cc1S(N)(=O)=O [pazopanib] = 97
O=S(=O)(c1cccc2cnccc12)N1CCCNCC1 [fasudil] = -1.76
COc1cc2nccc(Oc3ccc(NC(=O)C4(C(=O)Nc5ccc(F)cc5)CC4)cc3)c2cc1OC [cabozantinib] = 32

###

Molecular target: panel of more than 300 wild-type and mutant kinases (313 kinase panel) (Homo sapiens, UniProt P22607, K650E)
Sequence (P22607 23-806 K650E): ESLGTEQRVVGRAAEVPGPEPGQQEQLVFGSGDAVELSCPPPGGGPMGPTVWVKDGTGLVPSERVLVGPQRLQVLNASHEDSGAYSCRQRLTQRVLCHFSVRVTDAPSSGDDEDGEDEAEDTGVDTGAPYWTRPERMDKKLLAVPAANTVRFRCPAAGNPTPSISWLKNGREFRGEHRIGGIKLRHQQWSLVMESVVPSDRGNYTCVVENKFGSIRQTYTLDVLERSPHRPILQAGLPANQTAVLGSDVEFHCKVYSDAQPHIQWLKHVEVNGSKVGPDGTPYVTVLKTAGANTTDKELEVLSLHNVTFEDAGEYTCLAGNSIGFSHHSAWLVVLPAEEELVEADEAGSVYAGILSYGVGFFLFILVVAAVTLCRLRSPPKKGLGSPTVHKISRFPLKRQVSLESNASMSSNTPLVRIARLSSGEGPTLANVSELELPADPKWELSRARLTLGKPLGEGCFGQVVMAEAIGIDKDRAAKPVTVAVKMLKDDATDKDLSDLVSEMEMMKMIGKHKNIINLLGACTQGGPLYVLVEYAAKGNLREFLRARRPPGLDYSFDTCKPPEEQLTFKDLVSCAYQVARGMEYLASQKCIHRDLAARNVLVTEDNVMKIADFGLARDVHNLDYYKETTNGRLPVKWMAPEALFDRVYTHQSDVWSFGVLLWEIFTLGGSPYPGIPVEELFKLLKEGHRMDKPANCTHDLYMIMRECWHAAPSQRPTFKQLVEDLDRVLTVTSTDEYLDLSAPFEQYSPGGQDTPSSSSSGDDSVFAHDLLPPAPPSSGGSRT
Test: Kinase profiling in a biochemical assay panel (mobility shift assays and ELISA), %-inhibition at 1 μM; selectivity entropy
Settings: kinase FGFR3(K650E); compound at 1 μM
Assay metric: %-inhibition of FGFR3(K650E) (%)

Cc1ccc(C(=O)Nc2ccc(CN3CCN(C)CC3)c(C(F)(F)F)c2)cc1C#Cc1cnc2cccnn12 [ponatinib] = 101
C[C@@H](Oc1cc(-c2cnn(C3CCNCC3)c2)cnc1N)c1c(Cl)ccc(F)c1Cl [crizotinib] = 52
CCN(CC)CCNC(=O)c1c(C)[nH]c(/C=C2\C(=O)Nc3ccc(F)cc32)c1C [sunitinib] = 96
Cc1cn(-c2cc(NC(=O)c3ccc(C)c(Nc4nccc(-c5cccnc5)n4)c3)cc(C(F)(F)F)c2)cn1 [nilotinib] = -37
N#CC[C@H](C1CCCC1)n1cc(-c2ncnc3[nH]ccc23)cn1 [ruxolitinib] = 16

###

Test system: forty-four human cancer cell lines
Assay: Cell proliferation assay (ATPlite, 72 hours) in the 44 cell line Oncolines panel
Assay type: cell-based
Conditions: Homo sapiens; cell line SK-N-AS; read-out: cell panel IC50, SK-N-AS
pIC50: −log10 of the molar value.
Assay metric: pIC50

CNC(=O)c1cc(Oc2ccc(NC(=O)Nc3ccc(Cl)c(C(F)(F)F)c3)c(F)c2)ccn1 [regorafenib] = 5.19

###

System: forty-four human cancer cell lines
Experiment: Cell proliferation assay (ATPlite, 72 hours) in the 44 cell line Oncolines panel
Format: cell-based
Settings: Homo sapiens; cell line BT-20; read-out: cell panel IC50, BT-20
Assay metric: IC50

CC(=O)Nc1cccc(-n2c(=O)n(C3CC3)c(=O)c3c(Nc4ccc(I)cc4F)n(C)c(=O)c(C)c32)c1 = > 31.6 µM
CCCS(=O)(=O)Nc1ccc(F)c(C(=O)c2c[nH]c3ncc(-c4ccc(Cl)cc4)cc23)c1F = > 31.6 µM

###

// reported %-inhibition of HER2 per item
Target: panel of more than 300 wild-type and mutant kinases (313 kinase panel) (Homo sapiens, UniProt P04626)
Sequence (P04626 23-1255, change not shown): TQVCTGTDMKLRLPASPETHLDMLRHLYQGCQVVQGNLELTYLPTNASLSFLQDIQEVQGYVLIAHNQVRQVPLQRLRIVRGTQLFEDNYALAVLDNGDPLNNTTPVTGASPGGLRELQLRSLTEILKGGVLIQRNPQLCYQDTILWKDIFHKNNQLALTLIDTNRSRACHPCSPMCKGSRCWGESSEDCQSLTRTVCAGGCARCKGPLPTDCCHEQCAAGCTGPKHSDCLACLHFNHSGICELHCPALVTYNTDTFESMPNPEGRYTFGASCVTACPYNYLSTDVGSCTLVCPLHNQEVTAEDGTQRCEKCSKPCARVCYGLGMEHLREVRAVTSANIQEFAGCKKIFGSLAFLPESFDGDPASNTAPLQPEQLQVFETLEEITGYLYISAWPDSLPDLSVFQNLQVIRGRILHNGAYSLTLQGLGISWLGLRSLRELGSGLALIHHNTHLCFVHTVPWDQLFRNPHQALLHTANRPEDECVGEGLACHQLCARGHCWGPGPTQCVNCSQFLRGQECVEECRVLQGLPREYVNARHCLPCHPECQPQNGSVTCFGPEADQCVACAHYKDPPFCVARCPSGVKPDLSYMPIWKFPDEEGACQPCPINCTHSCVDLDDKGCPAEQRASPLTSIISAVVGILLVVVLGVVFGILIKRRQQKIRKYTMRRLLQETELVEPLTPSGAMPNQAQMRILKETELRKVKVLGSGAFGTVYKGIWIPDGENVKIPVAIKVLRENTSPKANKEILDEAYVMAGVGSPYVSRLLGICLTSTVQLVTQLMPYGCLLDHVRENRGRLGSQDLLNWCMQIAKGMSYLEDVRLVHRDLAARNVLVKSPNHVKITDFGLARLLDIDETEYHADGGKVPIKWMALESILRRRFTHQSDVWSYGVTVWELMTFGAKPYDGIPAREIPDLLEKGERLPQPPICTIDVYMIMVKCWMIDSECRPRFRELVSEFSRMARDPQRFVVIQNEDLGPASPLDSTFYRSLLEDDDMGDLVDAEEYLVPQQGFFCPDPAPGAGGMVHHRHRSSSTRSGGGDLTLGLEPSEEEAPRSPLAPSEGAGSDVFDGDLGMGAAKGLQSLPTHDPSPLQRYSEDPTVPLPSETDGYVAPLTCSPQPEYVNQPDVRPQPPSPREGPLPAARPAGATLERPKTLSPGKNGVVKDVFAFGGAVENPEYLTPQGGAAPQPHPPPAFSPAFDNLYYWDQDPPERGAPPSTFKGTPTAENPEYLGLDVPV
Test: Kinase profiling in a biochemical assay panel (mobility shift assays and ELISA), %-inhibition at 1 μM; selectivity entropy
Conditions: kinase HER2; compound at 1 μM
Assay metric: %-inhibition of HER2

N#CC[C@H](C1CCCC1)n1cc(-c2ncnc3[nH]ccc23)cn1 = -3.75%
Cc1ccc(C(=O)Nc2ccc(CN3CCN(C)CC3)c(C(F)(F)F)c2)cc1C#Cc1cnc2cccnn12 = 88%
CO[C@H]1C[C@@H]2CC[C@@H](C)[C@@](O)(O2)C(=O)C(=O)N2CCCC[C@H]2C(=O)O[C@H]([C@H](C)C[C@@H]2CC[C@@H](OC(=O)C(C)(CO)CO)[C@H](OC)C2)CC(=O)[C@H](C)/C=C(\C)[C@@H](O)[C@@H](OC)C(=O)[C@H](C)C[C@H](C)/C=C/C=C/C=C/1C = -0.179%
CO[C@H]1C[C@@H]2CC[C@@H](C)[C@@](O)(O2)C(=O)C(=O)N2CCCC[C@H]2C(=O)O[C@H]([C@H](C)C[C@@H]2CC[C@@H](OCCO)[C@H](OC)C2)CC(=O)[C@H](C)/C=C(\C)[C@@H](O)[C@@H](OC)C(=O)[C@H](C)C[C@H](C)/C=C/C=C/C=C/1C = -2.5%
CC(=O)Nc1cccc(-n2c(=O)n(C3CC3)c(=O)c3c(Nc4ccc(I)cc4F)n(C)c(=O)c(C)c32)c1 = -5.36%
Cc1ccc(Nc2nccc(N(C)c3ccc4c(C)n(C)nc4c3)n2)cc1S(N)(=O)=O = 1.07%
CNC(=O)c1cc(Oc2ccc(NC(=O)Nc3ccc(Cl)c(C(F)(F)F)c3)c(F)c2)ccn1 = 6.43%
CCCS(=O)(=O)Nc1ccc(F)c(C(=O)c2c[nH]c3ncc(-c4ccc(Cl)cc4)cc23)c1F = 2%
C[C@@H](Oc1cc(-c2cnn(C3CCNCC3)c2)cnc1N)c1c(Cl)ccc(F)c1Cl = -0.714%
O=S(=O)(c1cccc2cnccc12)N1CCCNCC1 = 0.678%
CC(C)(C)c1nc(-c2cccc(NS(=O)(=O)c3c(F)cccc3F)c2F)c(-c2ccnc(N)n2)s1 = 50%
COc1cc2nccc(Oc3ccc(NC(=O)C4(C(=O)Nc5ccc(F)cc5)CC4)cc3)c2cc1OC [cabozantinib] = 10%
COc1cc2c(Nc3ccc(Br)cc3F)ncnc2cc1OCC1CCN(C)CC1 = 67%
COc1cc(Nc2c(C#N)cnc3cc(OCCCN4CCN(C)CC4)c(OC)cc23)c(Cl)cc1Cl = 88%

###

Tested on: forty-four human cancer cell lines
Assay: Cell proliferation assay (ATPlite, 72 hours) in the 44 cell line Oncolines panel
Assay type: cell-based
Conditions: Homo sapiens, AU565, read-out: cell panel IC50, AU-565
pIC50: −log10 of the molar value.
Assay metric: pIC50

C[C@@H](Oc1cc(-c2cnn(C3CCNCC3)c2)cnc1N)c1c(Cl)ccc(F)c1Cl = 5.11
COc1cc(Nc2c(C#N)cnc3cc(OCCCN4CCN(C)CC4)c(OC)cc23)c(Cl)cc1Cl = 5.39
CNC(=O)c1cc(Oc2ccc(NC(=O)Nc3ccc(Cl)c(C(F)(F)F)c3)c(F)c2)ccn1 = 6.16
Cc1ccc(Nc2nccc(N(C)c3ccc4c(C)n(C)nc4c3)n2)cc1S(N)(=O)=O = 5.18
CN(C)C/C=C/C(=O)Nc1cc2c(Nc3ccc(F)c(Cl)c3)ncnc2cc1O[C@H]1CCOC1 = 7.89
Cc1nc(Nc2ncc(C(=O)Nc3c(C)cccc3Cl)s2)cc(N2CCN(CCO)CC2)n1 = 5.15
CC(C)(C)c1nc(-c2cccc(NS(=O)(=O)c3c(F)cccc3F)c2F)c(-c2ccnc(N)n2)s1 = 5.23

###

Target: panel of more than 300 wild-type and mutant kinases (313 kinase panel) (Homo sapiens, UniProt P68400)
Experiment: Kinase profiling in a biochemical assay panel (mobility shift assays and ELISA), %-inhibition at 1 μM; selectivity entropy
Conditions: kinase CK2α1/β; 1 μM compound
Assay metric: %-inhibition, CK2α1/β (%)

CO[C@H]1C[C@@H]2CC[C@@H](C)[C@@](O)(O2)C(=O)C(=O)N2CCCC[C@H]2C(=O)O[C@H]([C@H](C)C[C@@H]2CC[C@@H](OC(=O)C(C)(CO)CO)[C@H](OC)C2)CC(=O)[C@H](C)/C=C(\C)[C@@H](O)[C@@H](OC)C(=O)[C@H](C)C[C@H](C)/C=C/C=C/C=C/1C [temsirolimus] = -6.65
CCCS(=O)(=O)Nc1ccc(F)c(C(=O)c2c[nH]c3ncc(-c4ccc(Cl)cc4)cc23)c1F [vemurafenib] = -5.39
CCN(CC)CCNC(=O)c1c(C)[nH]c(/C=C2\C(=O)Nc3ccc(F)cc32)c1C [sunitinib] = -21
Cc1cn(-c2cc(NC(=O)c3ccc(C)c(Nc4nccc(-c5cccnc5)n4)c3)cc(C(F)(F)F)c2)cn1 [nilotinib] = 3.23
O=S(=O)(c1cccc2cnccc12)N1CCCNCC1 [fasudil] = -4
CNC(=O)c1cc(Oc2ccc(NC(=O)Nc3ccc(Cl)c(C(F)(F)F)c3)c(F)c2)ccn1 [regorafenib] = -9
